- experimental target: Lysine-specific histone demethylase 1A (Homo sapiens, UniProt O60341)
- test method notes: Inhibition of LSD1 (unknown origin) by Spectra Max Paradigm Microplate Reader analysis
pIC50: −log10 of the molar value.

compound	pIC50
C[C@H]1COC2=C1C(=O)C(=O)c1c2ccc2c1CCCC2(C)C	5.04
Cc1coc2c1C(=O)C(=O)c1c-2ccc2c(C)cccc12	4.78
O=C(/C=C/c1ccc(O)c(O)c1)O[C@H](Cc1ccc(O)c(O)c1)C(=O)O	4.68
Cc1cccc2c3c(ccc12)C1=C(C(=O)C3=O)[C@@H](C)CO1 [DIHYDROTANSHINONE I]	4.80
O=C(/C=C/c1ccc(O)c2c1[C@H](C(=O)O[C@H](Cc1ccc(O)c(O)c1)C(=O)O)[C@@H](c1ccc(O)c(O)c1)O2)O[C@H](Cc1ccc(O)c(O)c1)C(=O)O	6.96

Numbers sourced from ChEMBL document CHEMBL5096159.
